Experiment: Oral bioavailability in Wistar rat at 10 mg/kg by LC-MS/MS analysis
Format: ADME, organism-based
Conditions: Wistar, in vivo
measurement name: bioavailability (%)

For orientation, consider the following solved cases.
* CC(C)c1ccc(S(=O)(=O)n2cc(CN3CCN(C)CC3)c3cc(F)ccc32)cc1.Cl.Cl | 91.4
* COc1cccc2c1c(CN1CCN(C)CC1)cn2S(=O)(=O)c1ccc(C(C)C)cc1.Cl.Cl | 10.7
* COc1ccc2c(c1)c(CN1CCN(C)CC1)cn2S(=O)(=O)c1ccc(C(C)C)cc1.CS(=O)(=O)O.CS(=O)(=O)O | 4.9
* COc1ccc2c(c1)c(CN1CCN(C)CC1)cn2S(=O)(=O)c1ccccc1Br.CS(=O)(=O)O.O | 24.9

[1] CN1CCN(Cc2cn(S(=O)(=O)c3ccccc3)c3ccccc23)CC1.Cl.Cl
[2] COc1ccc2c(c1)c(CN1CCN(C)CC1)cn2S(=O)(=O)c1ccc(F)cc1.CS(=O)(=O)O.CS(=O)(=O)O
Between 1 and 2 , whose measured bioavailability reads higher? Choose, then provide that item's label.
1
